System: ATP;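 note: ATP exposure 15 min at 22 °C before imaging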
Test: switch fluorescence ratio, 500 uM ATP over buffer (Cy3 cluster intensity, sum of 5 cycles each) (fold (ratio)); higher = stronger signal-on switching upon ATP binding; sequences stand for … in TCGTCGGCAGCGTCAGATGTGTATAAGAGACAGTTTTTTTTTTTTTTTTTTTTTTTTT…TC
Conditions: aptamer strand: ATP DNA aptamer (quencher-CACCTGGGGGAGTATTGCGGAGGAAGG + anchor), 100 nM annealed; ATP concentration: 500 uM
I'd be grateful if you could share measured switch fluorescence ratio for these entries.
Quick one: just the number, no unit, thanks!

Input: Which switch fluorescence ratio reading was recorded for the sequence `TTCGAGGTGC` ?
Output: 1.04

Input: Which switch fluorescence ratio reading was recorded for the sequence `ACATTGGCGA` ?
Output: 0.988

Input: Which switch fluorescence ratio reading was recorded for the sequence `AAATTTACCG` ?
Output: 1.05

Input: Which switch fluorescence ratio reading was recorded for the sequence `CAGTTCGGGA` ?
Output: 0.989

Input: Which switch fluorescence ratio reading was recorded for the sequence `CATGAGATTG` ?
Output: 0.971

Input: Which switch fluorescence ratio reading was recorded for the sequence `GCAGGGTAAA` ?
Output: 0.986

Input: Which switch fluorescence ratio reading was recorded for the sequence `TCACACGGCG` ?
Output: 1.13

Input: Which switch fluorescence ratio reading was recorded for the sequence `GTTGTTGCTA` ?
Output: 0.99

Input: Which switch fluorescence ratio reading was recorded for the sequence `TTTGGTTATG` ?
Output: 0.982

Input: Which switch fluorescence ratio reading was recorded for the sequence `CGACAATGTA` ?
Output: 1.17

Input: Which switch fluorescence ratio reading was recorded for the sequence `GTTGGGGTGA` ?
Output: 1.05

Input: Which switch fluorescence ratio reading was recorded for the sequence `GGGAGTGTTT` ?
Output: 1

Input: Which switch fluorescence ratio reading was recorded for the sequence `ATATGAATA` ?
Output: 0.999

Input: Which switch fluorescence ratio reading was recorded for the sequence `TAGTAGTGAG` ?
Output: 0.985

Input: Which switch fluorescence ratio reading was recorded for the sequence `ATTATGTAGA` ?
Output: 0.996

Input: Which switch fluorescence ratio reading was recorded for the sequence `CAAAAAGGCG` ?
Output: 1.03

Input: Which switch fluorescence ratio reading was recorded for the sequence `AAAATAGAGC` ?
Output: 1.05

Input: Which switch fluorescence ratio reading was recorded for the sequence `TGATAATCTT` ?
Output: 0.99

Input: Which switch fluorescence ratio reading was recorded for the sequence `GGAGTTGGGT` ?
Output: 0.984

Input: Which switch fluorescence ratio reading was recorded for the sequence `GGGGCTGAGT` ?
Output: 0.954

Input: Which switch fluorescence ratio reading was recorded for the sequence `CTGGTGAGTT` ?
Output: 0.979

Input: Which switch fluorescence ratio reading was recorded for the sequence `GGTACGGGGG` ?
Output: 1

Input: Which switch fluorescence ratio reading was recorded for the sequence `GTTTATATAT` ?
Output: 1.03

Input: Which switch fluorescence ratio reading was recorded for the sequence `GACGAGGCAG` ?
Output: 2.27

Input: Which switch fluorescence ratio reading was recorded for the sequence `AAAAGGTTAG` ?
Output: 1.02

Input: Which switch fluorescence ratio reading was recorded for the sequence `ATGGAACTTG` ?
Output: 0.994

Input: Which switch fluorescence ratio reading was recorded for the sequence `CGACTTTTAG` ?
Output: 0.959

Input: Which switch fluorescence ratio reading was recorded for the sequence `GGTATTCATT` ?
Output: 0.995

Input: Which switch fluorescence ratio reading was recorded for the sequence `GGATGGAAAT` ?
Output: 1.04

Input: Which switch fluorescence ratio reading was recorded for the sequence `CTTGTAACGG` ?
Output: 0.975

Input: Which switch fluorescence ratio reading was recorded for the sequence `ATTGCGACAC` ?
Output: 1.23

Input: Which switch fluorescence ratio reading was recorded for the sequence `TAGCCATGTC` ?
Output: 0.924

Input: Which switch fluorescence ratio reading was recorded for the sequence `AAGATAATAG` ?
Output: 0.993

Input: Which switch fluorescence ratio reading was recorded for the sequence `TGGGTTACTT` ?
Output: 0.995

Input: Which switch fluorescence ratio reading was recorded for the sequence `GGAATTACTT` ?
Output: 0.987

Input: Which switch fluorescence ratio reading was recorded for the sequence `TGAACTAGTA` ?
Output: 0.983

Input: Which switch fluorescence ratio reading was recorded for the sequence `CCACGCCAGA` ?
Output: 1.28

Input: Which switch fluorescence ratio reading was recorded for the sequence `CACCCTTTTC` ?
Output: 1.02

Input: Which switch fluorescence ratio reading was recorded for the sequence `AGGAGTACGT` ?
Output: 0.988

Input: Which switch fluorescence ratio reading was recorded for the sequence `GTTATGTCTG` ?
Output: 1.03

Input: Which switch fluorescence ratio reading was recorded for the sequence `CTTAGGAGGG` ?
Output: 0.997

Input: Which switch fluorescence ratio reading was recorded for the sequence `TTGCTATGGG` ?
Output: 0.978

Input: Which switch fluorescence ratio reading was recorded for the sequence `ACGGGAGACC` ?
Output: 1.02
